Recorded activation by entry
# experimental-protocol: MITF-driven TRPM1 luciferase induction in melanoma cells – cell-based, SK-MEL-5, single point, primary screen (AID 588334);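 also: 0% = neutral control wells and 100% = parthenolide positive control wells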
# cond: SK-MEL-5 TRPM1-promoter luciferase, 24 h; at 12.5 µM; active compounds read high; % of positive control, neutral wells = 0
Hit rate of the full screen: of about 300,000 compounds, about 2,300 (0.77%) were called active. This is one part of a sample in which actives are shown more often than they occur.
Give the quantity in %, number only.

These solved cases illustrate the format of a correct answer.
{"columns": ["compound", "scale-unit", "activation"],
 "data": [
  ["O=C(COC(=O)c1ccco1)NCc1ccc(Cl)cc1", "%", -14.2],
  ["COC(=O)c1ccc(NCC(=O)c2ccccc2)cc1", "%", 146],
  ["COc1ccc(CCNCc2c(-c3ccccc3)n(C)c3ccccc23)cc1", "%", 2.46],
  ["CSCCC(NC(=O)COc1ccccc1)C(=O)N1CCN(c2cccc(C(F)(F)F)c2)CC1 (stereo not drawn)", "%", 8.6],
  ["COc1cc(C(=O)N2CCN(S(=O)(=O)c3ccc(C(C)C)cc3)CC2)ccc1OCC(=O)N1CCOCC1", "%", -0.869]
]}

Request: Which activation value belongs to COc1cc(C2CC(=O)Oc3cc(OC)c(OC)c(OC)c32)cc(OC)c1OC (stereo not drawn) ?
Response: 1.92

Request: Which activation value belongs to O=C(CSc1ccc(-c2ccco2)nn1)Nc1cccc(F)c1 ?
Response: 13.2

Request: Which activation value belongs to Cc1ccc2cc(/C=N/Nc3ccc(C(=O)O)cc3)c(Cl)nc2c1 ?
Response: 99.2

Request: Which activation value belongs to CCOc1ccc(C(=O)Nc2cccc(SC)c2)cc1 ?
Response: 84.3

Request: Which activation value belongs to CC(C)=CCc1ccc(O)c(=O)cc1C(C)C ?
Response: -70.3

Request: Which activation value belongs to Cc1cc(NC(=O)c2ccc(F)cc2)ccc1NC(=O)c1ccco1 ?
Response: 10.4

Request: Which activation value belongs to COc1ccc(-c2c(C#Cc3ccccc3)c3ccccc3n2C)cc1 ?
Response: 85.9

Request: Which activation value belongs to O=C(O)c1ccc(N/N=C/c2ccc3ncccc3c2)cc1 ?
Response: -58.9

Request: Which activation value belongs to COc1cc(NC(=O)c2[nH]cnc2C(N)=O)cc(C(=O)Nc2cccc(C(F)(F)F)c2)c1 ?
Response: -88.9

Request: Which activation value belongs to CN(C)C(CNC(=O)c1cc2ccccc2o1)c1ccccc1 (stereo not drawn) ?
Response: 1.76

Request: Which activation value belongs to Cc1ccc(OCc2cc(C(=O)N(C)CCc3ccccc3)no2)cc1C ?
Response: 111

Request: Which activation value belongs to O=C(COC(=O)c1ccccc1)c1ccc2c(c1)OCCO2 ?
Response: 17.6

Request: Which activation value belongs to O=c1c(Cl)c(NC2CC2)cnn1-c1ccccc1 ?
Response: 6.24

Request: Which activation value belongs to O=C(COC(=O)c1ccccc1C(=O)c1ccccc1)c1ccco1 ?
Response: 1.5

Request: Which activation value belongs to COc1ccc(NC(=S)N2CCCC(CO)C2)c(OC)c1 (stereo not drawn) ?
Response: -5.46

The values you see were collected from PubChem BioAssay AID588334.
